meta.source: the supplement of paper PMC11780869

# Test system: Bacillus subtilis
# assay-method-text: cleaved RNA product abundance (RNA/gDNA barcode ratio) relative to median wild-type variant (ratio to wild type); higher = more accumulation of the downstream cleavage product
# experimental-context: experiment (reporter, strain, medium): exp 4a: truncated aprE reporter, strain BJT201 with 2% xylose (RNase J1 expressed); cleavage site: cggR-gapA (positions -7 to +36 mutated)
As shown below, each of these sequences has a reported cleaved RNA product abundance value.

ACAGACGAAGGAGCCGCAAATAAGTTATTAAGGGATGAATAAACCCTCAATATAAATATCTCTCACTTATTTAAA | 0.39
ACAGACGAAGGAGCCGCAAAGAAGTTATTAAAGGATGAATAATCCCTCAATATACATATCTCTCACTTATTTAAA | 0.17
ACAGACGAAGGAGCCGCAAAGAAGTTATTAAGGGATGAATAATCCGTCAATATAAATATCTCTCACTTATTTAAA | 0.234

Any idea what its cleaved RNA product abundance is? The sequence is "ACAGACGAAGGAGCCGCAAAGAAATTATTAAGGGATGAATAATCACTCAATATAAATATCTCTCACTTATTTAAA"
0.122

Entry under review: "ACAGACGAAGGAGCCGCAAAGAAGTTATTTAGCGATGAATAATCCCTCAATATAAATATCTCTCACTTATTTAAA" . Reported cleaved RNA product abundance?
0.0809

====

# Test system: Bacillus subtilis
# assay-method-text: cleaved RNA product abundance (RNA/gDNA barcode ratio) relative to median wild-type variant (ratio to wild type); higher = more accumulation of the downstream cleavage product
# experimental-context: experiment (reporter, strain, medium): exp 4a: truncated aprE reporter, strain BJT201 with 2% xylose (RNase J1 expressed); cleavage site: cggR-gapA (positions -7 to +36 mutated)
cleaved RNA product abundance values by entry
// return just the number, without any unit appended

ACAGACGAAGGAGCCGCAAAGAAGTTATTAAATGATGAATAATCCATCAATATAAATATCTCTCACTTATTTAAA | 0.162
ACAGACGAAGGAGCCGCAAAGAAGTTTTTAAGGGATGAAAAATCCCTCAATATAAATATCTCTCACTTATTTAAA | 0.293
ACAGACGAAGGAGCCGCAAAGAAGTAATTAAGGGATGAATTATCCCTCAATATAAATATCTCTCACTTATTTAAA | 0.355

With those in mind, consider the next sequence.
Using the record for "ACAGACGAAGGAGCCGCAAAGTAGTTATTAAGGGATAAATAATCCCTCAATATAAATATCTCTCACTTATTTAAA" , report its cleaved RNA product abundance.
0.9

====

Listed sequences paired with reported cleaved RNA product abundance
# System: Bacillus subtilis
# assay-method-text: cleaved RNA product abundance (RNA/gDNA barcode ratio) relative to median wild-type variant (ratio to wild type); higher = more accumulation of the downstream cleavage product
# experimental-context: experiment (reporter, strain, medium): exp 2b: truncated aprE reporter, strain BJT200; cleavage site: cggR-gapA (positions -7 to +36 mutated)

ACAGACGAAGGAGCCGCAAAGAATTTATTAAAGGATGAATAATCCCTCAATATAAATATCTCTCACTTATTTAAA | 0.171
ACAGACGAAGGAGCCGCAAAGAAGTTATTAAGGGATGAATAATGCCTCAATATAAATATCTCTCACTTATTTAAA | 0.129
ACAGACGAAGGAGCCGCAAAGAAGTTATTAAAGTATGAATAATCCCTCAATATAAATATCTCTCACTTATTTAAA | 0.0922
ACAGACGAAGGAGCCGCAAAGAAGTTATTAAGGGATGAATAATCCCTAAAAATAAATATCTCTCACTTATTTAAA | 0.213
ACAGACGAAGGAGCCGCAAAGAAGTTATTAAGGGATGAATAATCCATAAATATAAATATCTCTCACTTATTTAAA | 0.17
ACAGACGAAGGAGCCGCAAAGAAGTTAATAAGGGATTAATAATCCCTCAATATAAATATCTCTCACTTATTTAAA | 0.218

So what does the record say about cleaved RNA product abundance for "ACAGACGAAGGAGCCGCAAAGAATTTATTAAGGGATTAATAATCCCTCAATATAAATATCTCTCACTTATTTAAA" ?
0.771

If you can, please state the reported cleaved RNA product abundance value of "ACAGACGAAGGAGCCGCAAAGAAGTTATTAAGTGATGAATAATCCCTCAATATAACTATCTCTCACTTATTTAAA" .
0.146

Report cleaved RNA product abundance for "ACAGACGAAGGAGCCGCAAAGAAGTTATTAAGGGATGAATAATCCCTAAAGATAAATATCTCTCACTTATTTAAA" please.
0.259

====

# Tested on: Bacillus subtilis
# assay-method-text: cleaved RNA product abundance (RNA/gDNA barcode ratio) relative to median wild-type variant (ratio to wild type); higher = more accumulation of the downstream cleavage product
# experimental-context: experiment (reporter, strain, medium): exp 2b: truncated aprE reporter, strain BJT200; cleavage site: cggR-gapA (positions -7 to +36 mutated)
The sequences listed here are annotated with their cleaved RNA product abundance.
# answer = number (no unit)

ACAGACGAAGGAGCCGCAAAGTAGTTATTAAGGGATGAATAATACCTCAATATAAATATCTCTCACTTATTTAAA | 0.155
ACAGACGAAGGAGCCGCAAAGAAGTTATTCAGGGATGAATAATCCGTCAATATAAATATCTCTCACTTATTTAAA | 0.117

Look up cleaved RNA product abundance with Bacillus subtilis for this sequence: "ACAGACGAAGGAGCCGCAAAGAAGTTATTAAGGGAAGAATACTCCCTCAATATAAATATCTCTCACTTATTTAAA"
0.632

Bacillus subtilis / cleaved RNA product abundance / "ACAGACGAAGGAGCCGCAAAGAAGTTATTAAGGTATGAATAATCCCTCAAAATAAATATCTCTCACTTATTTAAA" : value?
0.108

====

# Tested on: Bacillus subtilis
# assay-method-text: cleaved RNA product abundance (RNA/gDNA barcode ratio) relative to median wild-type variant (ratio to wild type); higher = more accumulation of the downstream cleavage product
# experimental-context: experiment (reporter, strain, medium): exp 6: tetM reporter, strain 168; cleavage site: cggR-gapA (positions -7 to +36 mutated)
Hi, to clarify the labels: Met covers cleaved RNA product abundance from 0.3 upward, Not met covers anything below 0.3.

ACAGACGAAGGAGCCGCAAAGAAGTTATTAAGGGATGAATAATCACTCAATATAAATATCTCTCACTTATTTAAA | Not met
ACAGACGAAGGAGCCGCATAGAAGTTATTAAGGGATGAATAATCCCTCAATATAAATATCTCTCACTTATTTAAA | Met
ACAGACGAAGGAGCCGCAAAGAAGTTATTAATGGATGAATAATCCCTCAATATAAATATCTCTCACTTATTTAAA | Not met

Let's switch to this sequence now.
Is it the case that "ACAGACGAAGGAGCCGCAAAGAAGGTATTAAGGGATGAATAATCCCTCAATATAAATATCTCTCACTTATTTAAA" has cleaved RNA product abundance reaching or exceeding 0.3?
Met

====

Parameter: cleaved RNA product abundance. Scope: all listed entries.
# System: Bacillus subtilis
# assay-method-text: cleaved RNA product abundance (RNA/gDNA barcode ratio) relative to median wild-type variant (ratio to wild type); higher = more accumulation of the downstream cleavage product
# experimental-context: experiment (reporter, strain, medium): exp 8a: truncated aprE reporter, strain BJT201 with 2% xylose (RNase J1 expressed); cleavage site: glnRA (positions -5 to +31 mutated)
Answer field: number only, no words.

CGACATGTCCCGCTTCTTTCATTAATACGTTAGCAACTGTTATGCTATATACATTTACCTTTTAAGAGGAGGAAT | 0.886
CGACATGTCCCGCTTCTTTCATTAATCCGTTAGCAACTATTTTGCTATATATATTTACCTTTTAAGAGGAGGAAT | 1.42
CGACATGTCCCGCTTCTTTCATTAATCCGTTAGCAACTGTTTTGTTATATACATTTACCTTTTAAGAGGAGGAAT | 0.453
CGACATGTCCCGCTTCTTTCATTAATCCGTTAGCAACTGTTTTGATATATACATTAACCTTTTAAGAGGAGGAAT | 0.832
CGACATGTCCCGCTTCTTTCATTAATCCGTTAGCAAATGTTTTGCTATATACATTTTCCTTTTAAGAGGAGGAAT | 0.6
CGACATGTCCCGCTTCTTTCATTAATCCGTTAACAACTGTTTTTCTATATACATTTACCTTTTAAGAGGAGGAAT | 0.258
CGACATGTCCCGCTTCTTTCATTAATCCGTTACCAATTGTTTTGCTATATACATTTACCTTTTAAGAGGAGGAAT | 0.16
CGACATGTCCCGCTTCTTTCATTAATCCGTTAGAAACTGTTTTGCTATATACAGTTACCTTTTAAGAGGAGGAAT | 0.361

Query: cleaved RNA product abundance; subject: "CGACATGTCCCGCTTCTTTCATTAAGCCGTTACCAACTGTTTTGCTATATACATTTACCTTTTAAGAGGAGGAAT"
0.21

What value of cleaved RNA product abundance has been reported for the following sequence? "CGACATGTCCCGCTTCTTTCATTAATCCGTTAACAACTGTTTTGCTATATACATTTAGCTTTTAAGAGGAGGAAT"
0.204

Quick one: cleaved RNA product abundance for "CGACATGTCCCGCTTCTTTCATTAATCCCTTAGCAACTGTTTTGCTATATACATTTACTTTTTAAGAGGAGGAAT" ?
0.19

Please look up its cleaved RNA product abundance: "CGACATGTCCCGCTTCTTTCATTAATCCTTTAGCAAATGTTTTGCTATATACATTTACCTTTTAAGAGGAGGAAT"
0.608

Look at this sequence and give its reported cleaved RNA product abundance. "CGACATGTCCCGCTTCTTTCATTAATCCGTTAGCAATTGTTTTGCTAAATACATTTACCTTTTAAGAGGAGGAAT"
0.342

What value of cleaved RNA product abundance has been recorded for this entry: "CGACATGTCCCGCTTCTTTCATTAATCCGTTAGTAAATGTTTTGCTATATACATTTACCTTTTAAGAGGAGGAAT"
0.205

# query: cleaved RNA product abundance of entry "CGACATGTCCCGCTTCTTTCATTAATCCGTTAGCAACTGTTTCGCTATATACATTTACCTTTTAAGAGGAGGAAT"
0.358

Fill blank: measured cleaved RNA product abundance of the sequence "CGACATGTCCCGCTTCTTTCATTAATCCGTTAGGAACTGTTTTGCTATACACATTTACCTTTTAAGAGGAGGAAT" is ____.
0.245
